- method_description: PET hydrolysis product formed (TPA+MHET+BHET, UV-Vis) per mg enzyme (mmol/mg enzyme); higher = more PET depolymerisation activity; extreme values may be limits of the assay
- measurement_setup: PET substrate: cryPow; 60 °C; pH 9.5; 24 h
Could you please report measured PET hydrolysis product formed for the items listed next?
Please give the numeric answer without any surrounding text.

Q) So what does the record say about PET hydrolysis product formed for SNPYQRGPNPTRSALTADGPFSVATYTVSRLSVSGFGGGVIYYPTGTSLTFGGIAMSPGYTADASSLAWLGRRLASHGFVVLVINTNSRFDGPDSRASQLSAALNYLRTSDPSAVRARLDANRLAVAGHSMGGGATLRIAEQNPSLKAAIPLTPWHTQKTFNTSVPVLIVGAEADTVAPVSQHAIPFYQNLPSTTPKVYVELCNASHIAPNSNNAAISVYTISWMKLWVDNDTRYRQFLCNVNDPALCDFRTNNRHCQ [LCC-ICCG DAQI] ?
A) 0.116

Q) # input sequence: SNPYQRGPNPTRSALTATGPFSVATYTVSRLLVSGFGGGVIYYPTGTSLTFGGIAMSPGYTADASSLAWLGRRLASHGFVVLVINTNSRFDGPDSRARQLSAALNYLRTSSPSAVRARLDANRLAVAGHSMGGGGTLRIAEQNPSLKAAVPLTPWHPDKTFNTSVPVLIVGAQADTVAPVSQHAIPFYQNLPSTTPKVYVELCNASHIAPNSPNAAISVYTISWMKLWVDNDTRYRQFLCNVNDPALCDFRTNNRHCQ [LCC-ICCG I6M] ; wanted: its PET hydrolysis product formed
A) 0.0598

Q) What does the data say about its PET hydrolysis product formed? Entry: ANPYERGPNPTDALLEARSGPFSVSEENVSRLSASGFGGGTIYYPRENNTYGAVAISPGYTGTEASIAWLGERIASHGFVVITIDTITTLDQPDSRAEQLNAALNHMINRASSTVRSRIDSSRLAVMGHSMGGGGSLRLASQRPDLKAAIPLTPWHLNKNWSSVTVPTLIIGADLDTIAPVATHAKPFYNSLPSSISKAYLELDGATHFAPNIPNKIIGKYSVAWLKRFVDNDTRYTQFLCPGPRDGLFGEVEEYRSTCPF [TfCut2]
A) 0.0223
